assay: chemical genetic growth profiling, strain panel (AID 1159580);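 also: tested at 20 µM; growth read once vehicle control cultures reached saturation at 30 °C; 1 = growth at the plate median or of vehicle wells; lower values mean less growth of the strain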; conditions: S. cerevisiae deletion strains, growth OD, locus YNL207W, strain RIO2, active compounds read low
About 2,000 (36%) of roughly 5,500 compounds were called active. Not shown: some 18% with an inconclusive outcome. The list shows a part of the results.
reported_endpoint: normalized growth
Reply: number alone, nothing else.

QUERY: // query normalized growth value for entry `CC(=O)Nc1ccc(/C=C/[N+](=O)[O-])cc1`
RESULT: 0.978

QUERY: // query normalized growth value for entry `C/C(=C\c1ccc2c(c1)OCO2)[N+](=O)[O-]`
RESULT: 0.091

QUERY: // query normalized growth value for entry `Cc1nn(Cc2ccc(C(=O)Sc3ccc(C(F)(F)F)cn3)o2)c(C)c1Br`
RESULT: 0.953

QUERY: // query normalized growth value for entry `O=[N+]([O-])c1cc(Br)cnc1Sc1nnc(SCC2CC2)s1`
RESULT: 0.929

QUERY: // query normalized growth value for entry `N#CC(C#N)=C/C=C(/Sc1nc2ccccc2s1)c1ccc(Br)cc1`
RESULT: 0.21

QUERY: // query normalized growth value for entry `CCCc1c(C(=O)NNc2cccc(Cl)c2)cnn1-c1ccccc1`
RESULT: 0.983

QUERY: // query normalized growth value for entry `Cc1cc(Br)ccc1-n1c(Sc2c([N+](=O)[O-])cc(C(F)(F)F)cc2[N+](=O)[O-])nc2ccccc2c1=O`
RESULT: 0.999

QUERY: // query normalized growth value for entry `Cc1cc(Cl)ccc1NC(=S)NNC(=S)Nc1ccc(F)cc1`
RESULT: 0.961

QUERY: // query normalized growth value for entry `C=CCOc1ccc(/C=C/[N+](=O)[O-])cc1`
RESULT: 0.0904

QUERY: // query normalized growth value for entry OC(CNCc1ccc(Cl)cc1)CO/N=C\C1=C(Cl)c2cc(Cl)ccc2OC1 (centres undefined)
RESULT: 0.97

QUERY: // query normalized growth value for entry `O=C(c1ccc2ccccc2c1)N1CCN(c2ccnc3cc(Cl)ccc23)CC1`
RESULT: 0.994

QUERY: // query normalized growth value for entry `N#CCC(=O)NNC(=S)Nc1ccc(Cl)c(Cl)c1`
RESULT: 0.978

QUERY: // query normalized growth value for entry `CC(=O)c1sc(SCCS(=O)(=O)c2ccc(C)cc2)c2c1CC(C)(C)CC2=O`
RESULT: 1

QUERY: // query normalized growth value for entry `CCCc1c(C(=O)Sc2ccccn2)cnn1-c1ccc(Cl)cc1`
RESULT: 0.955

QUERY: // query normalized growth value for entry `O=[N+]([O-])/C=C/c1ccsc1`
RESULT: 0.0963

QUERY: // query normalized growth value for entry `O=C(NCCSCc1cccc(C(F)(F)F)c1)c1ccc(Cl)cc1`
RESULT: 0.969

QUERY: // query normalized growth value for entry `O=C(NCCSCc1ccco1)Nc1cc(Cl)cc(Cl)c1`
RESULT: 0.943

QUERY: // query normalized growth value for entry `CSc1ccc(/C=C/[N+](=O)[O-])cc1`
RESULT: 0.0972

QUERY: // query normalized growth value for entry `O=c1c(Cl)c(-n2cccn2)cnn1-c1ccc(Cl)cc1Cl`
RESULT: 0.968

QUERY: // query normalized growth value for entry `O=C(Nc1ccc(C(F)(F)F)cc1)N1CCN(c2ccnc3cc(Cl)ccc23)CC1`
RESULT: 0.99

QUERY: // query normalized growth value for entry `CC(C)c1ccc(NC(=S)NC(=O)c2ccccc2)cc1`
RESULT: 0.953

QUERY: // query normalized growth value for entry `FC(F)(F)c1cccc(NC(=S)Nc2csc(C(F)(F)F)c2-c2ccccc2)c1`
RESULT: 0.973

QUERY: // query normalized growth value for entry `CCOC(=O)/C(=N/Nc1c(Cl)cccc1Cl)c1csc(N)n1`
RESULT: 0.947

QUERY: // query normalized growth value for entry `Cc1c(C)c(C)c(CSC(N)=Nc2ccc(F)cc2)c(C)c1C`
RESULT: 0.998
